- target under test: hCA XII (Homo sapiens, UniProt O43570)
- Sequence (O43570 25-354): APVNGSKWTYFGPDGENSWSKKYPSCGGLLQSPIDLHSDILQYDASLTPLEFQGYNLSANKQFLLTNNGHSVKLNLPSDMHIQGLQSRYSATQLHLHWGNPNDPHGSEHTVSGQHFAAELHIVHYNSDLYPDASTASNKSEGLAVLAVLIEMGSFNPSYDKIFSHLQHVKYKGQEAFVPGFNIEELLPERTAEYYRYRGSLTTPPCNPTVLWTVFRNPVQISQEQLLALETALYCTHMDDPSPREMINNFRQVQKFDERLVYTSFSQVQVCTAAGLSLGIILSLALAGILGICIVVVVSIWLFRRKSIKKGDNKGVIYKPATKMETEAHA
- protocol details: hCA XII inhibition, stopped-flow assay
- Type: biochemical
- run conditions: selectivity index (SI), ratio of Ki hCA I to Ki hCA XII
quantity: Selectivity Analysis hCA I/XII

CC(=NNC(=O)CSc1nc2ccccc2c(=O)n1CCc1ccc(S(N)(=O)=O)cc1)c1ccccc1
9.78
NS(=O)(=O)c1ccc(CCn2c(SCC(=O)NN=Cc3ccc([N+](=O)[O-])cc3)nc3ccccc3c2=O)cc1
20.83

[1] CC(=NNC(=O)CSc1nc2ccccc2c(=O)n1CCc1ccc(S(N)(=O)=O)cc1)c1cccnc1
[2] NS(=O)(=O)c1ccc(CCn2c(SCC(=O)NN=Cc3ccccc3[N+](=O)[O-])nc3ccccc3c2=O)cc1
Please indicate which has the smaller reported Selectivity Analysis hCA I/XII: 1 , or 2 . // caller expects the label of the chosen entry
1

[I] NS(=O)(=O)c1ccc(CCn2c(SCC(=O)NN=Cc3ccccc3F)nc3ccccc3c2=O)cc1
[II] NS(=O)(=O)c1ccc(CCn2c(SCC(=O)NN=Cc3ccc(Cl)c(Cl)c3)nc3ccccc3c2=O)cc1
Which record would sort first by descending Selectivity Analysis hCA I/XII, I or II ? // caller expects the label of the chosen entry
II
(II: 28.81, I: 11.96)

----------
- target under test: hCA XII (Homo sapiens, UniProt O43570)
- protocol details: hCA XII inhibition, stopped-flow assay
- Type: biochemical
- run conditions: selectivity index (SI), ratio of Ki hCA I to Ki hCA XII
quantity: Selectivity Analysis hCA I/XII

NNC(=O)CSc1nc2ccccc2c(=O)n1CCc1ccc(S(N)(=O)=O)cc1
16.22
CC(=NNC(=O)CSc1nc2ccccc2c(=O)n1CCc1ccc(S(N)(=O)=O)cc1)c1ccccc1Cl
19.74
CC(=NNC(=O)CSc1nc2ccccc2c(=O)n1CCc1ccc(S(N)(=O)=O)cc1)c1ccc(N)cc1
27.64

[A] NS(=O)(=O)c1ccc(CCn2c(SCC(=O)NN=Cc3ccc(Cl)cc3Cl)nc3ccccc3c2=O)cc1
[B] CC(=NNC(=O)CSc1nc2ccccc2c(=O)n1CCc1ccc(S(N)(=O)=O)cc1)c1ccc(C)cc1
Which record would sort first by descending Selectivity Analysis hCA I/XII, A or B ? // caller expects the label of the chosen entry
A
(A: 26.33, B: 10.90)

----------
- target under test: hCA II (Homo sapiens, UniProt P00918)
- protocol details: hCA II inhibition, stopped-flow assay
- Type: biochemical
- run conditions: stopped-flow technique; mean from three different assays, errors ±5–10%
quantity: Ki (nM)

Example molecules with recorded Ki:
NS(=O)(=O)c1ccc(CCn2c(SCC(=O)NN=Cc3ccccc3F)nc3ccccc3c2=O)cc1 [Compound 10]
35.8
NS(=O)(=O)c1ccc(CCn2c(SCC(=O)NN=Cc3cccnc3)nc3ccccc3c2=O)cc1 [Compound 16]
23.8

[A] CC(=NNC(=O)CSc1nc2ccccc2c(=O)n1CCc1ccc(S(N)(=O)=O)cc1)c1ccccc1Cl [Compound 21]
[B] CC(=NNC(=O)CSc1nc2ccccc2c(=O)n1CCc1ccc(S(N)(=O)=O)cc1)c1ccc(Cl)cc1 [Compound 23]
Which record would sort first by descending Ki, A or B ? // caller expects the label of the chosen entry
A
(A: 324 nM, B: 157 nM)

----------
- target under test: hCA XII (Homo sapiens, UniProt O43570)
- protocol details: hCA XII inhibition, stopped-flow assay
- Format: biochemical
- run conditions: selectivity index (SI), ratio of Ki hCA I to Ki hCA XII
quantity: Selectivity Analysis hCA I/XII

Example molecules with recorded Selectivity Analysis hCA I/XII:
CC(=NNC(=O)CSc1nc2ccccc2c(=O)n1CCc1ccc(S(N)(=O)=O)cc1)c1cccc(Cl)c1
18.49
NS(=O)(=O)c1ccc(CCn2c(SCC(=O)NN=Cc3c(Cl)cccc3Cl)nc3ccccc3c2=O)cc1
40.35
NS(=O)(=O)c1ccc(CCn2c(SCC(=O)NN=Cc3ccc(F)cc3)nc3ccccc3c2=O)cc1
8.35
CN(C)c1ccc(C=NNC(=O)CSc2nc3ccccc3c(=O)n2CCc2ccc(S(N)(=O)=O)cc2)cc1
85.58
CC(=NNC(=O)CSc1nc2ccccc2c(=O)n1CCc1ccc(S(N)(=O)=O)cc1)c1ccc(F)cc1
7.35

[I] NS(=O)(=O)c1ccc(CCn2c(SCC(=O)NN=Cc3ccccc3Cl)nc3ccccc3c2=O)cc1
[II] NS(=O)(=O)c1ccc(CCn2c(SCC(=O)NN=Cc3cccnc3)nc3ccccc3c2=O)cc1
Please indicate which has the smaller reported Selectivity Analysis hCA I/XII: I , or II . // caller expects the label of the chosen entry
II
(II: 10.0, I: 20.39)

----------
- target under test: hCA XII (Homo sapiens)
- protocol details: hCA XII inhibition, stopped-flow assay
- Type: biochemical
- run conditions: selectivity index (SI), ratio of Ki hCA I to Ki hCA XII
quantity: Selectivity Analysis hCA I/XII

Example molecules with recorded Selectivity Analysis hCA I/XII:
CC(=NNC(=O)CSc1nc2ccccc2c(=O)n1CCc1ccc(S(N)(=O)=O)cc1)c1ccccn1
1.85
NS(=O)(=O)c1ccc(CCn2c(SCC(=O)NN=Cc3ccc(Cl)cc3)nc3ccccc3c2=O)cc1
8.37

[1] CC(=NNC(=O)CSc1nc2ccccc2c(=O)n1CCc1ccc(S(N)(=O)=O)cc1)c1ccccc1N
[2] Cc1ccccc1C=NNC(=O)CSc1nc2ccccc2c(=O)n1CCc1ccc(S(N)(=O)=O)cc1
Please indicate which has the smaller reported Selectivity Analysis hCA I/XII: 1 , or 2 . // caller expects the label of the chosen entry
2

----------
- target under test: hCA IX (Homo sapiens, UniProt Q16790)
- protocol details: hCA IX inhibition, stopped-flow assay
- Type: biochemical
- run conditions: selectivity index (SI), ratio of Ki hCA I to Ki hCA IX
quantity: Selectivity Analysis hCA I/IX

Example compounds with recorded Selectivity Analysis hCA I/IX:
CC(=NNC(=O)CSc1nc2ccccc2c(=O)n1CCc1ccc(S(N)(=O)=O)cc1)c1ccc(Br)cc1
13.6
Cc1ccccc1C=NNC(=O)CSc1nc2ccccc2c(=O)n1CCc1ccc(S(N)(=O)=O)cc1
11.41
NS(=O)(=O)c1ccc(CCn2c(SCC(=O)NN=Cc3ccc(Cl)cc3)nc3ccccc3c2=O)cc1
6.37

[P] CC(=NNC(=O)CSc1nc2ccccc2c(=O)n1CCc1ccc(S(N)(=O)=O)cc1)c1cccc(Cl)c1
[Q] CC(=NNC(=O)CSc1nc2ccccc2c(=O)n1CCc1ccc(S(N)(=O)=O)cc1)c1cccnc1
[R] CC(=NNC(=O)CSc1nc2ccccc2c(=O)n1CCc1ccc(S(N)(=O)=O)cc1)c1ccccc1
[S] CC(=NNC(=O)CSc1nc2ccccc2c(=O)n1CCc1ccc(S(N)(=O)=O)cc1)c1ccccc1N
# desc sort on Selectivity Analysis hCA I/IX across 4 compounds Write out the labels following the order that was asked for.
S, P, Q, R

----------
- target under test: hCA XII (Homo sapiens)
- protocol details: hCA XII inhibition, stopped-flow assay
- Type: biochemical
- run conditions: selectivity index (SI), ratio of Ki hCA II to Ki hCA XII
quantity: Selectivity Analysis hCA II/XII

Example compounds with recorded Selectivity Analysis hCA II/XII:
CC(=NNC(=O)CSc1nc2ccccc2c(=O)n1CCc1ccc(S(N)(=O)=O)cc1)c1ccc(C)cc1
2.19
NS(=O)(=O)c1ccc(CCn2c(SCC(=O)NN=Cc3ccc(Cl)cc3)nc3ccccc3c2=O)cc1
1.87
NS(=O)(=O)c1ccc(CCn2c(SCC(=O)NN=Cc3ccccc3Cl)nc3ccccc3c2=O)cc1
5.45
NS(=O)(=O)c1ccc(CCn2c(SCC(=O)NN=Cc3ccccc3[N+](=O)[O-])nc3ccccc3c2=O)cc1
26.60
CC(=NNC(=O)CSc1nc2ccccc2c(=O)n1CCc1ccc(S(N)(=O)=O)cc1)c1ccccc1N
1.92

[P] CC(=NNC(=O)CSc1nc2ccccc2c(=O)n1CCc1ccc(S(N)(=O)=O)cc1)c1ccc(F)cc1
[Q] CC(=NNC(=O)CSc1nc2ccccc2c(=O)n1CCc1ccc(S(N)(=O)=O)cc1)c1ccccc1
[R] NNC(=O)CSc1nc2ccccc2c(=O)n1CCc1ccc(S(N)(=O)=O)cc1
[S] CC(=NNC(=O)CSc1nc2ccccc2c(=O)n1CCc1ccc(S(N)(=O)=O)cc1)c1ccccn1
[T] CC(=NNC(=O)CSc1nc2ccccc2c(=O)n1CCc1ccc(S(N)(=O)=O)cc1)c1ccc(Br)cc1
# desc sort on Selectivity Analysis hCA II/XII across 5 compounds Write out the labels following the order that was asked for.
T, Q, R, P, S

[1] NS(=O)(=O)c1ccc(CCn2c(SCC(=O)NN=Cc3ccc(Cl)c(Cl)c3)nc3ccccc3c2=O)cc1
[2] NS(=O)(=O)c1ccc(CCn2c(SCC(=O)NN=Cc3cccnc3)nc3ccccc3c2=O)cc1
Please indicate which has the smaller reported Selectivity Analysis hCA II/XII: 1 , or 2 . // caller expects the label of the chosen entry
2
(2: 1.14, 1: 5.12)
